This collection of values is drawn from patent US12630600B2.

- study_system: human GLP-1 receptor (human, UniProt P43220)
- assay_remarks: cell-based or functional assay
Starred links: 1 amine or outer side, 2 acyl side, 3 side chain; linkers in the order of their positions; H or OH if unused. Non-standard residues stand in square brackets, D forms with d. Groups on a side chain read outwards from the residue. No end group written: not given here. *: point of attachment. C20 diacid = O=C(O)CCCCCCCCCCCCCCCCCCC(=O)*; C18 diacid = O=C(O)CCCCCCCCCCCCCCCCC(=O)*; γGlu = O=C(O)[C@H](CCC(=O)[*:2])N[*:1]; αMeF = C[C@](N)(Cc1ccccc1)C(=O)O; AEEA = NCCOCCOCC(=O)O; Aib = CC(C)(N)C(=O)O

binder | quantity_unit | hGLP-1R EC50 (pM)
H[Aib]HGS[αMeF]TSDVSK[αMeF]LDSRAAK([AEEA-AEEA-γGlu-γGlu-C20 diacid])D[αMeF]VQ[Aib]IANT-OH [Peptide 304] | pM | 239
H[Aib]HGS[αMeF]TSDVSK[αMeF]LDSRAAK([AEEA-γGlu-AEEA-C18 diacid])D[αMeF]VQ[Aib]IANT-NH2 [Peptide 259] | pM | 19.1
H[Aib]HGS[αMeF]TSDVSK[αMeF]LDSRAAK([AEEA-AEEA-γGlu-γGlu-C20 diacid])D[αMeF]VQ[Aib]IANT-NH2 [Peptide 281] | pM | 155
H[Aib]HGS[αMeF]TSDVSK[αMeF]LDSRAAKD[αMeF]VQ[Aib]IANT-NH2 (not fully specified (residue 20)) [Peptide 230] | pM | 170
H[Aib]HGS[αMeF]TSDVSK[αMeF]LDSR[Aib]AK([AEEA-AEEA-γGlu-C18 diacid])DFVESIANT-NH2 [Peptide 251] | pM | 79.8
H[Aib]HGS[αMeF]TSDVSK[αMeF]LDSRAAK([AEEA-γGlu-γGlu-C20 diacid])D[αMeF]VQ[Aib]IANT-NH2 [Peptide 279] | pM | 86.5
H[Aib]HGS[αMeF]TSDVSK[αMeF]LDSRAAK([AEEA-AEEA-C18 diacid])D[αMeF]VQ[Aib]IANT-NH2 [Peptide 272] | pM | 15.7
H[Aib]HGS[αMeF]TSDVSK[αMeF]LDSR[Aib]AK([γGlu-C18 diacid])DFVESIANT-NH2 [Peptide 254] | pM | 102
H[Aib]HGS[αMeF]TSDVSK[αMeF]LDSRAAKD[αMeF]IA[Aib]IANT-NH2 (not fully specified (residue 20)) [Peptide 228] | pM | 200
